src = paper PMC9101642

target: ERβ (Homo sapiens, UniProt Q92731); assay: Fluorescence polarization competition assay: antagonistic potency and relative binding affinity; conditions: log of % relative binding affinity, estradiol = 100%
Sequence (Q92731 whole entry): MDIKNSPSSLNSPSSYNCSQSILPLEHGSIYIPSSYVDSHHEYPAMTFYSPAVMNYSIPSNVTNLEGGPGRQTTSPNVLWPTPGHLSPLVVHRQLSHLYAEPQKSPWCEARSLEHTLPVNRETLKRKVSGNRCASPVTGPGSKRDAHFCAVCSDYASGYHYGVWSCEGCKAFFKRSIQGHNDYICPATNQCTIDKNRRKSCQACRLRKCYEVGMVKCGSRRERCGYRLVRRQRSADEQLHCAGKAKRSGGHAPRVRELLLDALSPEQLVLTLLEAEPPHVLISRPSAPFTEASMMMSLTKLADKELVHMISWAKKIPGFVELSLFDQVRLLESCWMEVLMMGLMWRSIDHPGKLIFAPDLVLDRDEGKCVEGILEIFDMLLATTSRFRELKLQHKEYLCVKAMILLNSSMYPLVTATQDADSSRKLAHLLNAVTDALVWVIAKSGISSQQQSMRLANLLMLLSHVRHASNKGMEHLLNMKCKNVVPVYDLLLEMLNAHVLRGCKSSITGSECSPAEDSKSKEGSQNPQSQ
Marks after values point to notes of the source that are not given here.
RECORDED_ENDPOINT: logRBA ERβ

Known logRBA ERβ results, listed for orientation:
| COMPOUND | RECORDED_ENDPOINT | READOUT_VALUE |
| --- | --- | --- |
| CC(=O)c1cc(C(=O)O[C@@H]2/C=C/C(=O)O[C@@H](O)CCC/C=C/[C@@H]3C[C@H](O)C[C@H]32)ccc1OCCN1CCCC2CCCNC21 (some centres unmarked) [Compound 3DPQ-8] | logRBA ERβ | 0.09 ^†,‡,§ |
| CC(=O)c1cc(C(=O)O[C@@H]2/C=C/C(=O)O[C@@H](O)CCC/C=C/[C@@H]3C[C@H](O)C[C@H]32)ccc1OCCN1CCCC(O)C1=O (some centres unmarked) [Compound 3DPQ-12] | logRBA ERβ | 0.00 ^†,‡,§ |
| O=C(c1ccc(OCCN2CCCCC2)cc1)c1c(-c2ccc(O)cc2)sc2cc(O)ccc12 [Ral., Raloxifene, reference compound] | logRBA ERβ | 1.42 ^† |
| CC(=O)c1cc(C(=O)O[C@@H]2/C=C/C(=O)O[C@@H](O)CCC/C=C/[C@@H]3C[C@H](O)C[C@H]32)ccc1OCCN(C)C [Compound 3DPQ-2] | logRBA ERβ | 0.06 ^†,‡,§ |
| CC(=O)c1cc(C(=O)O[C@@H]2/C=C/C(=O)O[C@@H](O)CCC/C=C/[C@@H]3C[C@H](O)C[C@H]32)ccc1OCCN1CCCCC1 [Compound 3DPQ-10] | logRBA ERβ | 0.05 ^†,‡,§ |
| CC(=O)c1cc(C(=O)O[C@@H]2/C=C/C(=O)O[C@@H](O)CCC/C=C/[C@@H]3C[C@H](O)C[C@H]32)ccc1OCCN1Cc2cccnc2C1 [Compound 3DPQ-6] | logRBA ERβ | 0.01 ^†,‡,§ |
| CC(=O)c1cc(C(=O)OC2/C=C/C(=O)O[C@@H](O)CCC/C=C/[C@@H]3C[C@H](O)C[C@@H]23)ccc1OCCN1CCC=C(C(=O)O)C1 (some centres unmarked) [Compound 3DPQ-3] | logRBA ERβ | 0.08 ^†,‡,§ |
| CC(=O)c1cc(C(=O)O[C@@H]2/C=C/C(=O)O[C@@H](O)CCC/C=C/[C@@H]3C[C@H](O)C[C@H]32)ccc1OCCN1C=Cc2ccccc2C1 [Compound 3DPQ-7] | logRBA ERβ | 0.09 ^†,‡,§ |
| CC(=O)c1cc(C(=O)O[C@@H]2/C=C/C(=O)O[C@@H](O)CCC/C=C/[C@@H]3C[C@H](O)C[C@H]32)ccc1OCCN1CC(C(=O)O)=CCC1=O [Compound 3DPQ-9] | logRBA ERβ | 0.03 ^†,‡,§ |
| CNCCOc1ccc(C(=O)O[C@@H]2/C=C/C(=O)O[C@@H](O)CCC/C=C/[C@@H]3C[C@H](O)C[C@H]32)cc1C(C)=O [Compound 3DPQ-1] | logRBA ERβ | 0.08 ^†,‡,§ |

**Q:** Returns the measured logRBA ERβ for the input compound. Input: CC(=O)c1cc(C(=O)O[C@@H]2/C=C/C(=O)O[C@@H](O)CCC/C=C/[C@@H]3C[C@H](O)C[C@H]32)ccc1OCCS(=O)(=O)O [Compound 3DPQ-4]
**A:** 0.03 ^†,‡,§

**Q:** Returns the measured logRBA ERβ for the input compound. Input: CC(=O)c1cc(C(=O)OC2C=CC(=O)OC(O)CCCC=CC3CC(O)CC32)ccc1OCCN1C(=O)CCC1=O (centres unmarked) [Compound 3DPQ-5]
**A:** 0.08 ^†,‡,§

**Q:** Returns the measured logRBA ERβ for the input compound. Input: CC/C(=C(\c1ccc(O)cc1)c1ccc(OCCN(C)C)cc1)c1ccccc1 [Compound 4-OHT., 4-hydroxytamoxifen, reference compound]
**A:** 1.39 ^†

**Q:** Returns the measured logRBA ERβ for the input compound. Input: CC(=O)c1cc(C(=O)O[C@@H]2/C=C/C(=O)O[C@@H](O)CCC/C=C/[C@@H]3C[C@H](O)C[C@H]32)ccc1OCCN1CCCC1 [Compound 3DPQ-11]
**A:** 0.07 ^†,‡,§
